TESTED_ON: HIS-Keap1 full length / Biotin-Nrf2 (16-mer) (Homo sapiens, UniProt Q14145)
Sequence (Q14145 whole entry): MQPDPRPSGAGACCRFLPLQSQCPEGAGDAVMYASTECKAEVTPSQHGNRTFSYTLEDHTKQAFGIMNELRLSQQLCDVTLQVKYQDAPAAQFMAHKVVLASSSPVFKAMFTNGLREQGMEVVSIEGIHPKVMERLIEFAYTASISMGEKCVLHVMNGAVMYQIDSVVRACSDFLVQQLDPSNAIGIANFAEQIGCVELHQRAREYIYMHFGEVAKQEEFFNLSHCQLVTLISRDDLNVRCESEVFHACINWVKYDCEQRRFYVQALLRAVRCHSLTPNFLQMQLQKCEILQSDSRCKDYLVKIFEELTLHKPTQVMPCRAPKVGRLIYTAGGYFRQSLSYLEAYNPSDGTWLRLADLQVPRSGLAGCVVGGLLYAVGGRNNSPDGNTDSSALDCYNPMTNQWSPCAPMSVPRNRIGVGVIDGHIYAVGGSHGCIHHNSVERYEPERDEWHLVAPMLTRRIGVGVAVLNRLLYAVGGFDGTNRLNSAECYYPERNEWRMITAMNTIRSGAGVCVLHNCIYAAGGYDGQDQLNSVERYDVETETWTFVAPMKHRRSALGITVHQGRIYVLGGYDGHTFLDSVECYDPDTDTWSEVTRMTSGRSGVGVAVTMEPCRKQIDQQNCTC
PROTOCOL_DETAILS: biochemical
// boundary case: IC50 equal to 2 nM maps to rule not met; strictly smaller maps to rule met

Cc1c2ccc3c1nnn3CCCCCCc1ccc(nc1)C(=O)N1CCc3ccc(cc3C1)C2CC(=O)O (stereo not shown) ... rule not met
Cc1cc2ccc1C(=O)N1CCc3ccc(cc3C1)C(CC(=O)O)c1cnc(cc1C)OCCCCC2 (stereo not shown) ... rule not met
Cc1c2cnc3c1nnn3CCCCCCc1ccc(cc1)C(=O)N1CCc3ccc(cc3C1)[C@@H]2CC(=O)O ... rule met

# evaluate next
Check if IC50 falls below 2 nM for `Cc1cc2ccc1C(=O)N1CCc3ccc(cc3C1)[C@@H](CC(=O)O)c1ccc3c(nnn3CCC/C=C/C2)c1C` .
rule met
